I'd appreciate it if you could supply LD50 at 24 h values for the items below.
Experimental Details: in vivo
Experimental Conditions: mouse, sc, ddy male mice, subcutaneous, read-out: LD50 s.c.

Query block: Bench note: what LD50 at 24 h did CC(C)CCc1ccc(O)cc1O [drawing 17] show?
Result block: > 500 mg/kg

Query block: Ok, now CCCCCCc1ccc(O)cc1O [drawing 16]
Result block: > 500 mg/kg
